Below: a set of entries, each annotated with reported Tmax.
METHOD_DESCRIPTION: Plasma metabolites and pharmacokinetics after single intake of lemon or orange extract (UPLC-ESI-QTOF-MS, non-compartmental analysis)
Format: in vivo, human
RECORDED_CONDITIONS: after lemon extract, mean ± SD
Description: Secondary endpoints involved the evaluation of post-prandial changes in several biomarkers dealing with metabolism, inflammation, and oxidative stress after a high-fat-high-sugars meal. […] Glucose, total cholesterol, HDL-cholesterol, LDL-cholesterol, triglycerides, insulin, homeostatic model assessment insulin resistance (HOMA-IR), gamma-glutamyl transferase (GGT), and alanine aminotransferase (ALT) were determined as previously reported. […] Data are expressed as mean ± SD. […]
REPORTED_PROPERTY: Tmax (h)

COMPOUND	RECORDED_NUMBER
O=C1CC(c2ccc(O)cc2)Oc2cc(OC3OC(C(=O)O)C(O)C(O)C3O)cc(O)c21 (stereo not shown) [M3, Naringenin 7-O-glucuronide]	5.4
COc1ccc(C2CC(=O)c3c(O)cc(OC4OC(C(=O)O)C(O)C(O)C4O)cc3O2)cc1O (stereo not shown) [M7, Hesperetin 7-O-glucuronide]	6.3
COc1ccc(C2CC(=O)c3c(O)cc(O)cc3O2)cc1OC1OC(C(=O)O)C(O)C(O)C1O (stereo not shown) [M8, Hesperetin 3′-O-glucuronide]	6.4
O=C1CC(c2ccc(OC3OC(C(=O)O)C(O)C(O)C3O)c(O)c2)Oc2cc(O)cc(O)c21 (stereo not shown) [M4, Eriodictyol glucuronide-3]	5.9

* * *

Reported Urinary excretion Total F values follow for various molecules
METHOD_DESCRIPTION: Urinary excretion of flavanone-derived metabolites after single intake of lemon or orange extract (UPLC-ESI-QTOF-MS)
Format: in vivo, human
RECORDED_CONDITIONS: orange extract, sum of fractions F1-F4 (24 h), mean ± SD

MOLECULE	Urinary excretion Total F (µg/mg creatinine)
O=C1CC(c2ccc(OC3OC(C(=O)O)C(O)C(O)C3O)c(O)c2)Oc2cc(O)cc(O)c21 (centres unmarked) [M4, Eriodictyol glucuronide-3]	3.4
COc1ccc(C2CC(=O)c3c(O)cc(O)cc3O2)cc1OS(=O)(=O)O (centres unmarked) [M14, Hesperetin 3′-O-sulfate]	3.8
O=C1CC(c2ccc(OC3OC(C(=O)O)C(O)C(O)C3O)cc2)Oc2cc(O)cc(O)c21 (centres unmarked) [M5, Naringenin 4′-O-glucuronide]	1.0
COc1ccc(C2CC(=O)c3c(O)cc(O)cc3O2)cc1OC1OC(C(=O)O)C(O)C(O)C1O (centres unmarked) [M8, Hesperetin 3′-O-glucuronide]	9.9
O=C1CC(c2ccc(O)c(OC3OC(C(=O)O)C(O)C(O)C3O)c2)Oc2cc(O)cc(O)c21 (centres unmarked) [M2, Eriodictyol glucuronide-2]	2.5
O=C1CC(c2ccc(O)c(O)c2)Oc2cc(OC3OC(C(=O)O)C(O)C(O)C3O)cc(O)c21 (centres unmarked) [M1, Eriodictyol glucuronide-1]	0.6
COc1ccc(C2CC(=O)c3c(O)cc(OC4OC(C(=O)O)C(O)C(O)C4O)cc3O2)cc1O (centres unmarked) [M7, Hesperetin 7-O-glucuronide]	5.6
O=C1CC(c2ccc(O)cc2)Oc2cc(OC3OC(C(=O)O)C(O)C(O)C3O)cc(O)c21 (centres unmarked) [M3, Naringenin 7-O-glucuronide]	0.7

* * *

METHOD_DESCRIPTION: Plasma metabolites and pharmacokinetics after single intake of lemon or orange extract (UPLC-ESI-QTOF-MS, non-compartmental analysis)
Type: in vivo, human
RECORDED_CONDITIONS: human, oral, 1.95 g, after orange (hesperidin) extract, mean ± SD, read-out: AUC0-t
Protocol: Secondary endpoints involved the evaluation of post-prandial changes in several biomarkers dealing with metabolism, inflammation, and oxidative stress after a high-fat-high-sugars meal. […] Glucose, total cholesterol, HDL-cholesterol, LDL-cholesterol, triglycerides, insulin, homeostatic model assessment insulin resistance (HOMA-IR), gamma-glutamyl transferase (GGT), and alanine aminotransferase (ALT) were determined as previously reported. […] Data are expressed as mean ± SD. […]
So basically, if AUC(0-t) comes in under 0.2 µM·h it's 1 (yes), and if it's 0.2 µM·h or more it's 0 (no).

COMPOUND	QUALITATIVE_LABEL
O=C1CC(c2ccc(O)cc2)Oc2cc(OC3OC(C(=O)O)C(O)C(O)C3O)cc(O)c21 (centres unmarked) [M3, Naringenin 7-O-glucuronide]	1 (yes)
COc1ccc(C2CC(=O)c3c(O)cc(OC4OC(C(=O)O)C(O)C(O)C4O)cc3O2)cc1O (centres unmarked) [M7, Hesperetin 7-O-glucuronide]	1 (yes)
COc1ccc(C2CC(=O)c3c(O)cc(O)cc3O2)cc1OS(=O)(=O)O (centres unmarked) [M14, Hesperetin 3′-O-sulfate]	0 (no)
COc1ccc(C2CC(=O)c3c(O)cc(O)cc3O2)cc1OC1OC(C(=O)O)C(O)C(O)C1O (centres unmarked) [M8, Hesperetin 3′-O-glucuronide]	0 (no)
O=C1CC(c2ccc(OC3OC(C(=O)O)C(O)C(O)C3O)cc2)Oc2cc(O)cc(O)c21 (centres unmarked) [M5, Naringenin 4′-O-glucuronide]	1 (yes)
